Where these numbers come from: patent US20210324080A1

TARGET_OR_TEST_SYSTEM: T1, CTLA-4-hFc (immunogen A; hFc-labeled CTLA-4 extracellular domain protein) (human, UniProt P16410 36-161)
T1 construct: range 36-161; Made in HEK293 cells, purified on protein A; also called CLTA-4-hFc; CTLA-4 protein; not shown: human IgG Fc fragment (hFc) of the pCpC vector
T1 sequence (looked up): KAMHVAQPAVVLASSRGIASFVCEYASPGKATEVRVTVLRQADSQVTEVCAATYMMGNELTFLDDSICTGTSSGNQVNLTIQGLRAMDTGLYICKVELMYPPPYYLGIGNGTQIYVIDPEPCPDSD
PROCEDURE_TEXT: blocking assay, CTLA-4 protein, competitor B7.2
QUANTITY: % Block at 0.064 nM (%)

BINDER	EXPERIMENTAL_RESULT
92C8B6 fully human CTLA-4 antibody (human IgG1, kappa) (antibody, V domains shown, also called mAb42; mAb042) VH: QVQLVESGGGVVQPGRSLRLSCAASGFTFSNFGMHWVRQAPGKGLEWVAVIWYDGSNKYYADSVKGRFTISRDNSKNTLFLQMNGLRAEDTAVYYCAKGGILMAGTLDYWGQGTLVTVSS VL: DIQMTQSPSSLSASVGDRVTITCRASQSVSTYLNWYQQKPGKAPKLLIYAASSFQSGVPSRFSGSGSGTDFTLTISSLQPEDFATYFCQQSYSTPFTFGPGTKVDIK	36.7
